The measured values listed here are drawn from the supplement of paper PMC10567573.

Could you please report measured protein stability index for the items listed next?
B1: VAMP4 (parent)
chain: FLRGPSGPRFGPRNDKIKHVQNQV

- Variants of: B1
- Assay Details: protein stability index of a GFP-peptide fusion (GPS, HEK-293T) (PSI 1-6); higher = more stable;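 further: lentivirally expressed fusions sorted by FACS into six bins by GFP to DsRed ratio, PSI derived from sequencing read proportions per bin multiplied by bin number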
- Condition Set: c terminus: a fixed tail appended
# print the numeric value only

Input: Reported protein stability index for `D15H` : what is it?
Output: 3.02

Input: Also need `R9Q` , thanks.
Output: 2.93

Input: Same thing, different variant: `R9W`
Output: 2.93

Input: What would you report for `F10H` ?
Output: 3.07

Input: Entry `K16A` please
Output: 3
